assay: Displacement of fluorescein-SLF from FKBP12 F36V mutant-GST fusion protein by fluorescence polarization assay
Measured Metric: Kd

Given CC[C@H](C(=O)N1CCCC[C@H]1C(=O)O[C@H](CCc1ccc(OC)c(OC)c1)c1cccc(OCCN2CCOCC2)c1)c1cc(OC)c(OC)c(OC)c1 , state its recorded Kd.
2 nM
